Reported ring closure, isolated yield values follow for various compounds
- assay_comment: head-to-tail lactamisation of linear tetrapeptide (N-terminal Pro amine + C-terminal Ile acid), HATU (2 equiv), DIPEA (3 equiv)
- run_parameters: the molecule shown is the open-chain precursor; 12-membered ring; CH2Cl2 (with ca. 0.2-0.5% DMF); 0.4 mM; 25.0 °C; 1.5 h
parameter_measured: ring closure, isolated yield (%)

compound="CC[C@H](C)[C@H](NC(=O)[C@H](C)NC(=O)[C@H](CCCCNC(=O)OC(C)(C)C)NC(=O)[C@@H]1CCCN1)C(=O)O [H-Pro-Lys(Boc)-Ala-Ile-OH]" obs_value=43
compound="CC[C@H](C)[C@H](NC(=O)[C@H](Cc1ccccc1)NC(=O)[C@H](CCCCNC(=O)OC(C)(C)C)NC(=O)[C@@H]1CCCN1)C(=O)O [H-Pro-Lys(Boc)-Phe-Ile-OH]" obs_value=50
compound="CC[C@H](C)[C@H](NC(=O)[C@H](C)NC(=O)[C@H](CC(C)C)NC(=O)[C@@H]1CCCN1)C(=O)O [H-Pro-Leu-Ala-Ile-OH]" obs_value=70
compound="CC[C@H](C)[C@H](NC(=O)[C@@H]1CCCN1C(=O)[C@H](CC(C)C)NC(=O)[C@@H]1CCCN1)C(=O)O [H-Pro-Leu-Pro-Ile-OH]" obs_value=53
compound="CC[C@H](C)[C@H](NC(=O)[C@@H](NC(=O)[C@H](CC(C)C)NC(=O)[C@@H]1CCCN1)C(C)C)C(=O)O [H-Pro-Leu-Val-Ile-OH]" obs_value=52
compound="CC[C@H](C)[C@H](NC(=O)[C@H](Cc1ccccc1)NC(=O)[C@H](CC(C)C)NC(=O)[C@@H]1CCCN1)C(=O)O [H-Pro-Leu-Phe-Ile-OH]" obs_value=46

###

- Tested on: E. coli ATCC 11229
- assay_comment: microbe, parasite or virus in culture
- run_parameters: ATCC 11229, 18 h
Where a SMILES comes first, the peptide text is derived from it.
Readings of minimum inhibitory concentration (MIC) E. coli ATCC 11229 for the listed compounds
parameter_measured: minimum inhibitory concentration (MIC) E. coli ATCC 11229 (µg/mL)

compound="CC[C@H](C)[C@H](NC(=O)[C@H](C)NC(=O)[C@H](CCCCN)NC(=O)[C@@H]1CCCN1)C(=O)O [PKAI] (H-PKAI-OH)" measurement_target="E. coli ATCC 11229" value_comparator== obs_value=250
compound="CC[C@H](C)[C@@H]1NC(=O)[C@@H]2CCCN2C(=O)[C@H](CC(C)C)NC(=O)[C@@H]2CCCN2C1=O [c-PLPI, cyclo(pro-leu-pro-ile)] (cyclo(PLPI))" measurement_target="E. coli ATCC 11229" value_comparator== obs_value=125
compound="CC[C@H](C)[C@H](NC(=O)[C@H](C)NC(=O)[C@H](CC(C)C)NC(=O)[C@@H]1CCCN1)C(=O)O [PLAI] (H-PLAI-OH)" measurement_target="E. coli ATCC 11229" value_comparator=> obs_value=1000

###

# minimum inhibitory concentration (MIC) B. cereus ATCC 11778 per entry
- System: B. cereus ATCC 11778
- assay_comment: microbe, parasite or virus in culture
- run_parameters: ATCC 11778, 18 h
Where a SMILES comes first, the peptide text is derived from it.
parameter_measured: minimum inhibitory concentration (MIC) B. cereus ATCC 11778

compound="CC[C@H](C)[C@H](NC(=O)[C@H](Cc1ccccc1)NC(=O)[C@H](CC(C)C)NC(=O)[C@@H]1CCCN1)C(=O)O [PLFI] (H-PLFI-OH)" measurement_target="B. cereus ATCC 11778" obs_value="500 µg/mL"
compound="CC[C@H](C)[C@H](NC(=O)[C@H](Cc1ccccc1)NC(=O)[C@H](CCCCN)NC(=O)[C@@H]1CCCN1)C(=O)O [PKFI] (H-PKFI-OH)" measurement_target="B. cereus ATCC 11778" obs_value="250 µg/mL"
compound="CC[C@H](C)[C@@H]1NC(=O)[C@H](Cc2ccccc2)NC(=O)[C@H](CC(C)C)NC(=O)[C@@H]2CCCN2C1=O [c-PLFI, cyclo-(pro-leu-phe-ile)] (cyclo(PLFI))" measurement_target="B. cereus ATCC 11778" obs_value="125 µg/mL"
